// reported log10 TGI per item
- Tested on: BT-549 breast
- experimental details: NCI tumour cell line growth inhibition, 48 h
readout: log10 TGI (log10 of the value in µM)

>  <molecule>
O=CN1N=C(c2cccc(Nc3ccnc4cc(Cl)ccc34)c2)CC1c1ccccc1 (stereo not given)

>  <meas value>
0.18

$$$$
>  <molecule>
COc1cc2cc(C(=O)N3CC(CCl)c4ccc(N(C)C)cc43)[nH]c2c(OC)c1OC (stereo not given)

>  <meas value>
0.12

$$$$
>  <molecule>
COc1cc(Cc2cnc(N)nc2N)cc(OC)c1OCCCNc1ccc([N+](=O)[O-])cc1

>  <meas value>
1.49

$$$$
>  <molecule>
COc1ccc(NC(=O)c2sc3nc(C)c(C(=O)/C=C/c4cccc(OC)c4)cc3c2N)cc1

>  <meas value>
0.43

$$$$
>  <molecule>
Cn1nc(C(F)(F)F)c(-c2cc(C(F)(F)F)cc(C(F)(F)F)c2)c1-c1ccc(OCc2ccc(Cl)cc2)cc1O

>  <meas value>
0.52

$$$$

---

- System: SN12C renal
- experimental details: NCI tumour cell line growth inhibition, 48 h
readout: log10 of TGI (log10 of the value in µM)

>  <compound>
CC(C)=CC(=O)N[C@H]1CC[C@]2(C)C3CC[C@]4(C)C(C(C)N(C)C)=CCC4C3CCC2[C@H]1O (some centres undefined)

>  <target or test system>
SN12C renal

>  <log10 of TGI>
1.28

$$$$
>  <compound>
CCCCc1c2cnccc2c(CCCC)c2c1[nH]c1ccccc12

>  <target or test system>
SN12C renal

>  <log10 of TGI>
1.80

$$$$
>  <compound>
CN(C)CCNC(=O)c1cccc2nc3c(C(=O)NCCN(C)C)cccc3nc12

>  <target or test system>
SN12C renal

>  <log10 of TGI>
0.75

$$$$
>  <compound>
Cn1nc(C(F)(F)F)c(-c2cc(C(F)(F)F)cc(C(F)(F)F)c2)c1-c1ccc(OCc2ccc(Cl)cc2)cc1O

>  <target or test system>
SN12C renal

>  <log10 of TGI>
1.01

$$$$
>  <compound>
CCCCCCCC/C=C1\CCC(CN2CCOCC2)C1=O (centres undefined)

>  <target or test system>
SN12C renal

>  <log10 of TGI>
1.10

$$$$

---

Readings of TGI for the listed compounds
- Test system: HT29 colon
- experimental details: NCI tumour cell line growth inhibition, 48 h

>  <compound>
NCCNC(=O)c1cccc2cc3ccccc3nc12

>  <TGI>
6.5 µM

$$$$
>  <compound>
O=C(C/C(=N/O)C(F)(F)F)c1cccs1

>  <TGI>
> 100 µM

$$$$
>  <compound>
Cc1ccc2c(c1)C(=O)c1c-2c(OCCCN(C)C)nc2ccccc12

>  <TGI>
3.33 µM

$$$$
>  <compound>
Cc1cccc(C)c1N1C(=O)C(=O)C(c2nc3ccccc3s2)/C(=N/NC(=O)c2ccccc2O)C1=O (stereo not given)

>  <TGI>
> 100 µM

$$$$
>  <compound>
C=CCOC(=O)N1c2ccc(O)cc2[C@@]23O[C@@]24[C@@H]1C#C/C=C\C#C[C@]3(O)C(OC)(OC)C[C@@H]4C

>  <TGI>
49.8 µM

$$$$
>  <compound>
O=C(/C=C1\C(=O)N(Cc2ccccc2)c2ccccc21)c1ccc(OCCN2CCCCC2)cc1

>  <TGI>
3.36 µM

$$$$
>  <compound>
CC(=O)NNc1nc(C)c(C(=O)/C=C/c2ccc(Cl)cc2)s1

>  <TGI>
> 100 µM

$$$$
>  <compound>
COC(=O)c1c(C)cccc1C1CN=NC12Cc1cc(C)cc(C)c1C2=O (stereo not given)

>  <TGI>
> 100 µM

$$$$
>  <compound>
Cc1c(Cl)cccc1N=NC(=O)NNc1cccc(Cl)c1C

>  <TGI>
35.3 µM

$$$$
>  <compound>
Cc1nc2ccccn2c1NC(=O)NNC(=S)Nc1ccc(F)cc1

>  <TGI>
> 100 µM

$$$$
>  <compound>
CCOC(=O)C(=CNC(=S)N=Nc1c(O)[nH]c2ccccc12)C(=O)OCC

>  <TGI>
> 100 µM

$$$$
>  <compound>
CCCN(CCC)C(=O)c1nc(N)nc(-c2ccc(OC)cc2)c1-c1ccc(OC)cc1

>  <TGI>
> 100 µM

$$$$
>  <compound>
C=C1C(=O)O[C@H]2[C@H]1CC/C(COC(=O)CCCc1c[nH]c3ccccc13)=C\CC[C@@]1(C)O[C@@H]21

>  <TGI>
3.37 µM

$$$$
>  <compound>
O=C1CC(=O)NC(=NN2C(=O)CSC2C(=O)c2ccco2)N1 (stereo not given)

>  <TGI>
> 100 µM

$$$$
>  <compound>
O=CN1N=C(c2cccc(Nc3ccnc4cc(Cl)ccc34)c2)CC1c1ccccc1 (stereo not given)

>  <TGI>
1.15 µM

$$$$
>  <compound>
O=[N+]([O-])c1cc2ccc(N(CCO)CCO)nc2nc1N(CCO)CCO

>  <TGI>
> 100 µM

$$$$
>  <compound>
CCSc1nc(=S)n(-c2ccccc2)c(C)c1C(C)=O

>  <TGI>
> 100 µM

$$$$
>  <compound>
COc1c(Br)cc2ccccc2c1-c1c(OC)c(Br)cc2ccccc12

>  <TGI>
> 100 µM

$$$$
>  <compound>
Cc1nc2c(cc1OCc1ccccc1)C(=O)C1=C(C2=O)C2OC(=O)CC2OC1(C)C (stereo not given)

>  <TGI>
1.41 µM

$$$$
>  <compound>
COc1cc(C(=O)O[C@H](C(=O)NCCN(C)CCNC(=O)[C@@H](OC(=O)c2cc(OC)cc3c(C)cccc23)[C@]2(C)CO2)[C@]2(C)CO2)c2cccc(C)c2c1

>  <TGI>
> 27 µM

$$$$

---

- System: MOLT-4 leukemia
- experimental details: NCI tumour cell line growth inhibition, 48 h

>  <compound>
C[C@]12CC[C@H]3[C@@H](CC4SC(N)=NC45C/C(=N/NC(N)=O)CC[C@]35C)[C@@H]1CCC2=O (some centres undefined)

>  <readout unit>
µM

>  <result operator>
=

>  <TGI>
7.02

$$$$
>  <compound>
Cc1ccc2c(c1)C(=O)c1c-2c(OCCCN(C)C)nc2ccccc12

>  <readout unit>
µM

>  <result operator>
=

>  <TGI>
4.57

$$$$
>  <compound>
Cn1nc(C(F)(F)F)c(-c2cc(C(F)(F)F)cc(C(F)(F)F)c2)c1-c1ccc(OCc2ccc(Cl)cc2)cc1O

>  <readout unit>
µM

>  <result operator>
=

>  <TGI>
11

$$$$
>  <compound>
NCCNC(=O)c1cccc2cc3ccccc3nc12

>  <readout unit>
µM

>  <result operator>
=

>  <TGI>
1.94

$$$$
>  <compound>
COc1cc(Cc2cnc(N)nc2N)cc(OC)c1OCCCNc1ccc([N+](=O)[O-])cc1

>  <readout unit>
µM

>  <result operator>
=

>  <TGI>
8.66

$$$$
>  <compound>
CO/N=C(\C([O-])=N\[n+]1cnn(CC(=O)OC(C)(C)C)c1)c1csc(NC(c2ccccc2)(c2ccccc2)c2ccccc2)n1

>  <readout unit>
µM

>  <result operator>
>

>  <TGI>
10

$$$$
>  <compound>
Cc1ccc(S(=O)(=O)c2ccc(C)cc2[N+](=O)[O-])cc1

>  <readout unit>
µM

>  <result operator>
>

>  <TGI>
100

$$$$
>  <compound>
O=c1c2cnccc2cc2c3ccccc3ccn12

>  <readout unit>
µM

>  <result operator>
=

>  <TGI>
91.8

$$$$
>  <compound>
CC([C@H]1CC=C2C3CCC4=C[C@@H](N(C)C)CC[C@]4(C)C3CC[C@@]21C)N(C)C (some centres undefined)

>  <readout unit>
µM

>  <result operator>
=

>  <TGI>
5.31

$$$$
>  <compound>
COC(=O)C(=O)C(C(=O)C(=O)Nc1ccccc1OC)c1nc2ccc([N+](=O)[O-])cc2[nH]c1=O (centres undefined)

>  <readout unit>
µM

>  <result operator>
>

>  <TGI>
100

$$$$
>  <compound>
CCCCCC[C@@H](C)NC(=O)c1ccc(Nc2nc3ccccc3c3occc23)cc1

>  <readout unit>
µM

>  <result operator>
>

>  <TGI>
100

$$$$
>  <compound>
Nc1nc2cc(CC[C@H]3C[C@@H](n4ccc5c(N)ncnc54)[C@H](O)[C@@H]3O)ccc2cc1Br

>  <readout unit>
µM

>  <result operator>
=

>  <TGI>
64.3

$$$$
>  <compound>
C=C1C(=O)O[C@H]2[C@H]1CC/C(COC(=O)CCCc1c[nH]c3ccccc13)=C\CC[C@@]1(C)O[C@@H]21

>  <readout unit>
µM

>  <result operator>
=

>  <TGI>
4.94

$$$$
>  <compound>
COc1ccc(C(=O)CC2=Nc3nnc(CCCCCCCc4nnc5n4C(=O)C(CC(=O)c4ccc(OC)cc4)=N5)n3C2=O)cc1

>  <readout unit>
µM

>  <result operator>
>

>  <TGI>
100

$$$$
>  <compound>
COc1ccc2c(c1OC)C(C(Cl)(Cl)Cl)N1CCc3cc4c(cc3C1=C2)OCO4 (centres undefined)

>  <readout unit>
µM

>  <result operator>
=

>  <TGI>
80.9

$$$$
>  <compound>
ClCc1ccccc1Cn1cnc2c(Cl)ncnc21

>  <readout unit>
µM

>  <result operator>
=

>  <TGI>
5.28

$$$$
>  <compound>
C=C1C(=O)O[C@H]2[C@H]1CC/C(Cn1cc(-c3ccc(F)cc3)nn1)=C\CC[C@@]1(C)O[C@@H]21

>  <readout unit>
µM

>  <result operator>
=

>  <TGI>
2

$$$$
>  <compound>
CC1=NOC(=O)/C1=C/c1ccc([N+](=O)[O-])cc1

>  <readout unit>
µM

>  <result operator>
>

>  <TGI>
100

$$$$
>  <compound>
Cc1ccc(N=Nc2c(O)ccc3cc(S(=O)(=O)O)ccc23)cc1

>  <readout unit>
µM

>  <result operator>
>

>  <TGI>
100

$$$$
